So I've got a bunch of molecules here, and I need their Inhibition percent values.
TARGET_SYSTEM: MeCP2-TBL1 interaction (MeCP2-SmBiT / TBL1-LgBiT) (Mus musculus, UniProt Q9QXE7)
Construct: expressed in transfected cells; crude lysate used as a cell-free assay
Sequence (Q9QXE7 166-527): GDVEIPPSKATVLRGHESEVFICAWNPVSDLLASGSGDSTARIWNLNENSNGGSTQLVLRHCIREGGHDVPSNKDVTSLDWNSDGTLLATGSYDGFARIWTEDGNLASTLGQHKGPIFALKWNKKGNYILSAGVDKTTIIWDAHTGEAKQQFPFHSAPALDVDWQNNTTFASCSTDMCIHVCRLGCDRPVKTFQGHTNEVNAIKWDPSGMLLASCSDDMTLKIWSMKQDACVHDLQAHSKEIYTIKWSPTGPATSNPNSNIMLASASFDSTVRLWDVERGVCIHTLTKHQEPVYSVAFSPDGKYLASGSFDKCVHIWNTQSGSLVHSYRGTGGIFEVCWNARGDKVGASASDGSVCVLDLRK
PROTOCOL_DETAILS: MeCP2-TBL1 NanoLuc luciferase complementation assay (cell-free, extracts of transfected HEK293 cells);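 further: each compound tested at 20 µM final concentration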
Type: binding, human
CONDITION_DESCRIPTION: primary screen of the Asinex library, sheet "Sargen output Asinex library", one well per compound, Batch Ref. 1
Source text: To facilitate the discovery of inhibitors of the interaction between MeCP2 and TBL1/TBLR1, we set out to devise a simple and scalable biochemical assay for measuring the interaction between these two proteins. We initially explored the possibility of screening compound libraries using a previously established fluorescence polarization assay that depends on purified recombinant TBL1/TBLR1[26]. […]
Give bare numbers, in %.

Completed entries (count: 6):
| MOLECULE | UNITS_TEXT | Inhibition percent |
| --- | --- | --- |
| CNC(=O)c1cnn2c(C3CCCCN3C(=O)c3ccnc(Cc4ccccc4F)c3)ccnc12 (centres unmarked) | % | -0.23 |
| C[C@]12C[C@@H](Cc3ccccc3)N(C(=O)CCCNc3ncnc4ccccc34)[C@H]1CCCC(=O)N2 | % | -1.67 |
| CCN1CCN(C(=O)Cc2ccccc2OC)C(Cc2cccc(-c3ccncc3)c2)C1=O (centres unmarked) | % | -1.27 |
| Cc1nc(C2(O)CCCN(Cc3ccncc3)CC2)sc1CCOc1ccccc1 (centres unmarked) | % | -3.76 |
| Cn1cc(-c2cc(C(=O)N3CCC(c4cncc(-c5cccc(Cl)c5)n4)CC3)ccn2)cn1 | % | 1.59 |
| O=C(Cn1ncc2ccccc2c1=O)N1CCCCC1c1ncc(Cc2ccccc2F)o1 (centres unmarked) | % | 3.33 |

Please report Inhibition percent for every entry that follows.
1. Cc1ccc(C2(C(=O)N3CCC(CC(=O)Nc4ccc5nccnc5c4)CC3)CCOCC2)cc1
2. O=C(NCC(=O)N1CCCCC1c1ncc(Cc2ccc(Cl)cc2)o1)c1cncc(O)c1 (centres unmarked)

Output:
1. -1.52
2. -11.18

* * *

TARGET_SYSTEM: MeCP2-TBL1 interaction (MeCP2-SmBiT / TBL1-LgBiT) (Mus musculus, UniProt Q9QXE7)
Construct: expressed in transfected cells; crude lysate used as a cell-free assay
PROTOCOL_DETAILS: MeCP2-TBL1 NanoLuc luciferase complementation assay (cell-free, extracts of transfected HEK293 cells);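 further: each compound tested at 20 µM final concentration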
Type: binding, human
CONDITION_DESCRIPTION: primary screen of the Asinex library, sheet "Sargen output Asinex library", one well per compound
So I've got a bunch of compounds here, and I need their Inhibition percent values.
Give bare numbers, in %.

| COMPOUND | TARGET_SYSTEM | Inhibition percent (%) |
| --- | --- | --- |
| Cn1c(COCC(=O)N2CCCCC2c2cc(C(=O)NC3CCCC3)[nH]n2)nc2ccccc21 (stereo not shown) [BDE_33628409] | MeCP2-TBL1 interaction (MeCP2-SmBiT / TBL1-LgBiT) (Mus musculus, UniProt Q9QXE7) | -3.22 |
| Cc1cc(C)n(-c2cccc(C(=O)N3C[C@@H](c4ccccc4)[C@@]4(CCCCC(=O)N4)C3)c2)n1 [BDH_20395756] | MeCP2-TBL1 interaction (MeCP2-SmBiT / TBL1-LgBiT) (Mus musculus, UniProt Q9QXE7) | -4.76 |
| COc1cccc2c1OC(C)(C)[C@H]1CC3(CCNCC3)[C@H](C)O[C@H]21 [BDG_33959669] | MeCP2-TBL1 interaction (MeCP2-SmBiT / TBL1-LgBiT) (Mus musculus, UniProt Q9QXE7) | 0.05 |
| CN1CCC(Cc2cccc(F)c2)(C(=O)N2CCCC(Cc3cccc4ncccc34)C2)CC1 (stereo not shown) [BDH_32354496] | MeCP2-TBL1 interaction (MeCP2-SmBiT / TBL1-LgBiT) (Mus musculus, UniProt Q9QXE7) | -4.55 |

Please report Inhibition percent for every entry that follows.
1. O=C(O)c1ccccc1CN1CCCC(c2ncc(Cc3ccc(Cl)cc3)o2)C1 (stereo not shown) [BDE_33511194]
2. CCc1nnsc1C(=O)NC[C@]1(c2ccccc2)CC[C@@H](O)[C@H](N2CCOCC2)CC1 [BDH_34124703]

Output:
1: -2.52; 2: 0.50

Please report Inhibition percent for every entry that follows.
1. Cc1cc(Oc2ccc(F)cc2)nc(C2CCCCN2C(=O)c2ccnc(-c3cncnc3)c2)n1 (stereo not shown) [BDH_32364851]
2. O=C(c1ccccc1CN1CCCC1)N1CCC2(CC1)COC(Cc1cccc(F)c1)C2 (stereo not shown) [BDH_32342523]
3. CCc1ccc(NC(=O)CN2[C@H]3CCCCC(=O)N[C@@]3(C)C[C@H]2c2cccc(OC)c2)cc1 [BDH_33625442]
4. CCOc1ccccc1NC(=O)N(C(C)c1ccccc1)C1CCn2c1nc1ccccc1c2=O (stereo not shown) [BDD_27845157]
5. O=C(c1cccc(Cn2ccnc2)c1)N1CCCC(c2nccnc2Oc2ccccc2)C1 (stereo not shown) [BDH_32339912]
6. COc1ccc(C2(C(=O)N3CCC(Cc4ccc5ncccc5c4)CC3)CCOCC2)cc1 [BDH_32344075]
7. CN1CCCC(CCCc2cnccn2)(C(=O)N2CCC(Cc3cccc4cccnc34)CC2)C1 (stereo not shown) [BDH_32356918]
8. CN(CCC(=O)N1[C@H](Cc2ccccc2)C[C@]2(C)NC(=O)CCC[C@H]12)Cc1cccnc1 [BDG_33630477]

Output:
1. -4.83
2. 5.16
3. 10.53
4. -3.22
5. -0.06
6. -2.33
7. -2.36
8. -2.32

Please report Inhibition percent for every entry that follows.
1. Cn1cc(-c2cccc(C(=O)N3CCCC(c4cccc(Cc5ccc(F)cc5)n4)C3)n2)cn1 (stereo not shown) [BDH_32365360]
2. COc1cccc2c1OC(C)(C)[C@H]1CC3(CCN(C(=O)CCCc4ccncc4)CC3)CO[C@H]21 [BDG_33693373]

Output:
[7.56, -2.47]

* * *

So I've got a bunch of compounds here, and I need their Inh (PKA) values.
System: PRKACA-PRKAR2A interaction (SmBiT-PRKACA / LgBiT-PRKAR2A), protein kinase A
Set-up: NanoLuc complementation counter-screen in cell extract, PRKACA with PRKAR2A, loss of luminescence, detects NanoLuc interference
CONDITION_DESCRIPTION: counter-screen for NanoLuc interference; 0.5 h, 20 µM; inhibitor
Numbers only, in %.

Completed entries (count: 3):
| COMPOUND | Inh (PKA) [%] |
| --- | --- |
| Nc1cccc2c1C(=O)N(C1CCC(=O)NC1=O)C2=O (stereo not shown) [UM0141764:01, Pomalidomide (CC-4047)] | 2.798 |
| CC(=O)SCC(=O)c1ccc(NS(=O)(=O)c2ccc(OCCCN(C)C)cc2)nc1 [UM0141844:01, KD 5170] | 2.048 |
| NC(=O)c1ccc(-c2nc(-c3ccccn3)c(-c3ccc4c(c3)OCO4)[nH]2)cc1 [UM0141970:01, SB 431542] | 22.36 |

Moving on to the next compound.
Kindly note: PRKACA-PRKAR2A interaction (SmBiT-PRKACA / LgBiT-PRKAR2A), protein kinase A, COc1cc2c(NC3CCN(C(C)C)CC3)nc(N3CCC(F)(F)CC3)nc2cc1OCCCN1CCCC1 [UM0142799:01, UNC 0642] , Inh (PKA) value reported: 0.7014

* * *

TARGET_SYSTEM: MeCP2-TBL1 interaction (MeCP2-SmBiT / TBL1-LgBiT) (Mus musculus)
Construct: expressed in transfected cells; crude lysate used as a cell-free assay
PROTOCOL_DETAILS: MeCP2-TBL1 NanoLuc luciferase complementation assay (cell-free, extracts of transfected HEK293 cells);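 further: each compound tested at 20 µM final concentration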
Assay type: binding, human
CONDITION_DESCRIPTION: primary screen of Asinex library, single well per compound
Record 1.0 whenever Inhibition percent is at -0.1 or higher; record 0.0 when lower.

| COMPOUND | TARGET_SYSTEM | CLASS_NAME |
| --- | --- | --- |
| CC(=O)N[C@H]1C[C@@H](C(=O)N(C)C)N(C(=O)CCCn2c(C)nc3ccccc32)[C@H]1c1ccccc1 [BDG_33630230] | MeCP2-TBL1 interaction (MeCP2-SmBiT / TBL1-LgBiT) (Mus musculus) | 0.0 |

Task: Quick check: does Cc1c[nH]c(-c2nccnc2CC2CCCN(C(=O)c3ccnc(Cc4cccc(F)c4)c3)C2)n1 (stereo not shown) [BDH_33521378] have Inhibition percent greater than or equal to -0.1?
Output: 0.0

Task: Quick check: does CNc1nc(C2CCCNC2)nc2c1CCN(C(=O)C1(Oc3ccccc3)CCCCC1)C2 (stereo not shown) [BDE_26713143] have Inhibition percent greater than or equal to -0.1?
Output: 0.0

Task: Quick check: does CC(=O)N[C@@]12CCN(S(=O)(=O)Cc3cccc(Cl)c3)C[C@@H]1[C@@H](c1ccccc1)N(C(C)=O)C2 [BDF_30361318] have Inhibition percent greater than or equal to -0.1?
Output: 0.0

Task: Quick check: does Cn1cc(C(=O)Nc2cccc(C(=O)N3CCCC(Cc4cnc5ccccc5c4)CC3)c2)cn1 (stereo not shown) [BDH_32361063] have Inhibition percent greater than or equal to -0.1?
Output: 0.0

Task: Quick check: does O=C(COc1ncnc2ccccc12)N1CCC[C@@]2(C[C@@H](Oc3ccc(F)c(Cl)c3)CO2)C1 [BDH_33516387] have Inhibition percent greater than or equal to -0.1?
Output: 1.0

Task: Quick check: does CC1(C)Oc2ccc(C(=O)O)cc2[C@H]2O[C@H]3CCSC[C@H]3C[C@@H]21 [BDG_51128812] have Inhibition percent greater than or equal to -0.1?
Output: 1.0
